target: UniProtKB P21453; assay: Agonist activity at S1P1 (unknown origin) expressed in human HEK293/Galpha15 cells assessed as Ca2+ activation at 1 uM measured for 2 hrs by FLIPR analysis relative to control; type: functional, cell-based
ENDPOINT: Activity (%)

Consider the reported Activity for these compounds:
{"columns": ["STRUCTURE_STRING", "MEASUREMENT"],
 "data": [
  ["CNC(=O)CCS(=O)(=O)N1CCc2cc(OCc3ccc(OC(C)C)c(C#N)c3)ccc2C1", 4],
  ["CC(C)Oc1ccc(COc2ccc3c(c2)CCN(S(=O)(=O)CCC(=O)N(C)C)C3)cc1C#N", 4],
  ["CC(C)Oc1ccc(COc2cccc3c2CCN(S(=O)(=O)CCC(=O)O)C3)cc1C#N", 4]
]}

1. CC(C)Oc1ccc(COc2ccc3c(c2)CCN(CCO)C3)cc1C#N
2. CC(C)Oc1ccc(COc2ccc3c(c2)CCCN(CCC(=O)O)C3)cc1C#N
Input line: API: POST /compare with 1 and 2 ; response names the item with higher Activity. Give the label under which the chosen entry appears.
Output line: 1

* * *

target: CYP3A4 (Homo sapiens); assay: Inhibition of CYP3A4 in human liver microsomes using midazolam as substrate assessed as residual activity at 10 uM preincubated for 5 mins followed by substrate addition and measured after 15 mins in presence of NADPH by LC-MS/MS analysis; assay type: ADME, Microsome; conditions: probe midazolam, time 20 min, read-out: Activity
ENDPOINT: activity at 0.25 h, 10 µM (%)

{"columns": ["MOLECULE", "UNIT_TAG", "MEASUREMENT"],
 "data": [
  ["CC(C)Oc1ccc(COc2ccc3c(c2)OCCN(S(=O)(=O)CCCO)C3)cc1C#N", "%", 92.7]
]}

P. CC(C)Oc1ccc(COc2ccc3c(c2)OCCN(S(=O)(=O)CC(=O)O)C3)cc1C#N
Q. CC(C)Oc1ccc(COc2ccc3c(c2)CCN(C(=O)CCC(=O)O)C3)cc1C#N
Input line: Problem: Given the entries P and Q , determine which has the lower reported activity at 0.25 h, 10 µM. Give the label under which the chosen entry appears.
Output line: Q
(Q: 26.3%, P: 84.6%)

* * *

assay: Observed MRT (infinitive) in ICR mouse at 1 mg/kg, iv measured at 0.25 to 12 hrs by LC-MS/MS analysis; assay type: ADME, organism-based; settings: in vivo, time 0.25-12 hrs
ENDPOINT: MRT inf (min)

A. CC(C)Oc1ccc(COc2ccc3c(c2)CCCN(S(=O)(=O)CCC(=O)O)C3)cc1C#N
B. CC(C)Oc1ccc(COc2ccc3c(c2)CCN(S(=O)(=O)CCC(=O)O)C3)cc1C#N
Input line: Problem: Given the entries A and B , determine which has the lower reported MRT inf. Give the label under which the chosen entry appears.
Output line: A

* * *

biological target: Sphingosine 1-phosphate receptor 1 (Homo sapiens, UniProt P21453); assay: Agonist activity at S1P1 (unknown origin) expressed in human HEK293/Galpha15 cells assessed as Ca2+ activation measured for 2 hrs by FLIPR analysis; format: functional, cell-based
Sequence (P21453 whole entry): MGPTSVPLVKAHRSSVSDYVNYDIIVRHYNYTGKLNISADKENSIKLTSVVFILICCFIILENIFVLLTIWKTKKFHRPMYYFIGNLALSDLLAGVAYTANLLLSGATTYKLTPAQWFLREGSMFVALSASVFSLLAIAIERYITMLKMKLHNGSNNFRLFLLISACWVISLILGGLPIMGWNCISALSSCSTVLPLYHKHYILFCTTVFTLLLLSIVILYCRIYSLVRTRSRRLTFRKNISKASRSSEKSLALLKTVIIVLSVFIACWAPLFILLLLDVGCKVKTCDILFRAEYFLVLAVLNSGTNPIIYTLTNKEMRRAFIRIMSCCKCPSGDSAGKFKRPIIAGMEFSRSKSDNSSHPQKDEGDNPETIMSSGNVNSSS
pEC50: −log10 of the molar value.
ENDPOINT: pEC50

Consider the reported pEC50 for these molecules:
{"columns": ["MOLECULE", "pEC50"],
 "data": [
  ["CC(C)Oc1ccc(COc2ccc3c(c2)CCN(C(=O)CCC(=O)O)C3C)cc1C#N (stereo unspecified)", 6.02],
  ["CC(C)Oc1ccc(COc2ccc3c(c2)CCCN(S(=O)(=O)CCC(=O)O)C3)cc1C#N", 7.68],
  ["CC(C)Oc1ccc(COc2ccc3c(c2)CCN(S(=O)(=O)CCC(=O)O)C3)cc1C#N", 7.85],
  ["CC(C)Oc1ccc(COc2ccc3c(c2)CCN(CCCC(=O)O)C3)cc1C#N", 7.01],
  ["CC(C)Oc1ccc(COc2ccc3c(c2)CCN(S(=O)(=O)CC(=O)O)C3)cc1C#N", 7.05],
  ["CC(C)Oc1ccc(COc2ccc3c(c2)CCCN(S(=O)(=O)CC(=O)O)C3)cc1C#N", 7.33]
]}

P. CC(C)Oc1ccc(COc2ccc3c(c2)CCN(C(=O)CCC(N)=O)C3)cc1C#N
Q. CC(C)Oc1ccc(COc2ccc3c(c2)CCN(CCC(=O)O)C3)cc1C#N
Input line: API: POST /compare with P and Q ; response names the item with higher pEC50. Give the label under which the chosen entry appears.
Output line: Q

A. CC(=O)NCCCC(=O)N1CCc2cc(OCc3ccc(OC(C)C)c(C#N)c3)ccc2C1
B. CC(C)Oc1ccc(COc2ccc3c(c2)CCN(CCC(=O)O)C3C)cc1C#N (stereo unspecified)
Input line: Problem: Given the entries A and B , determine which has the lower reported pEC50. Give the label under which the chosen entry appears.
Output line: A

* * *

target: Sphingosine 1-phosphate receptor 2 (Homo sapiens, UniProt O95136); assay: Agonist activity at S1P2 (unknown origin) expressed in PathHunter CHO-K1 EDG1 beta-arrestin cells assessed as beta-arrestin recruitment
Sequence (O95136 whole entry): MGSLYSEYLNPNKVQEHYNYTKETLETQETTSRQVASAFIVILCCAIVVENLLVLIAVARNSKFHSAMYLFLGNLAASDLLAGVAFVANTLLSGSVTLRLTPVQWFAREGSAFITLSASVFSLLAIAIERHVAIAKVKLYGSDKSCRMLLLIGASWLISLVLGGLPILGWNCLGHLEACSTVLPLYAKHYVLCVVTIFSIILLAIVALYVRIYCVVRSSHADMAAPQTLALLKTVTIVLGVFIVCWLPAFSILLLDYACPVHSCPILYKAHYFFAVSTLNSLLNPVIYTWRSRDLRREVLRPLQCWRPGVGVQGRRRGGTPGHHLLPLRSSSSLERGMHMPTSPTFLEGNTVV
pEC50: −log10 of the molar value.
ENDPOINT: pEC50

Input line: I am curious: what pEC50 value has been reported for "CC(C)Oc1ccc(COc2ccc3c(c2)CCCN(S(=O)(=O)CCC(=O)O)C3)cc1C#N" ?
Output line: < 4.00

* * *

assay: Microsomal stability in rat liver microsomes assessed as parent compound remaining preincubated for 5 mins followed by NADPH addition measured after 30 mins by LC-MS/MS analysis; type: ADME, Microsome; conditions: time 35 min, read-out: Stability
ENDPOINT: remaining at 0.5 h (%)

Consider the reported remaining at 0.5 h for these molecules:
{"columns": ["STRUCTURE_STRING", "remaining at 0.5 h / %"],
 "data": [
  ["CNC(=O)CCS(=O)(=O)N1CCc2cc(OCc3ccc(OC(C)C)c(C#N)c3)ccc2C1", 13.4],
  ["CC(C)Oc1ccc(COc2ccc3c(c2)CCN(C(=O)CCC(=O)N(C)C)C3)cc1C#N", 13.9],
  ["CC(C)Oc1ccc(COc2ccc3c(n2)CCN(S(=O)(=O)CCC(=O)O)C3)cc1C#N", 98.1]
]}

1. CC(C)Oc1ccc(COc2ccc3c(c2)CCN(S(=O)(=O)CCC(=O)N(C)C)C3)cc1C#N
2. CC(C)Oc1ccc(COc2ccc3c(c2)CCN(S(=O)(=O)CCC(=O)O)C3)cc1C#N
3. CC(C)Oc1ccc(COc2ccc3c(c2)CCN(C(=O)CCNS(C)(=O)=O)C3)cc1C#N
Input line: Please list these molecules in decreasing order of remaining at 0.5 h. # output: labels, in the requested order
Output line: 2, 3, 1

* * *

biological target: CYP3A4 (Homo sapiens, UniProt P08684); assay: Inhibition of CYP3A4 in human liver microsomes using midazolam as substrate assessed as residual activity at 10 uM preincubated for 5 mins followed by substrate addition and measured after 15 mins in presence of NADPH by LC-MS/MS analysis; assay type: ADME, Microsome; settings: probe midazolam, time 20 min, read-out: Activity
Sequence (P08684 whole entry): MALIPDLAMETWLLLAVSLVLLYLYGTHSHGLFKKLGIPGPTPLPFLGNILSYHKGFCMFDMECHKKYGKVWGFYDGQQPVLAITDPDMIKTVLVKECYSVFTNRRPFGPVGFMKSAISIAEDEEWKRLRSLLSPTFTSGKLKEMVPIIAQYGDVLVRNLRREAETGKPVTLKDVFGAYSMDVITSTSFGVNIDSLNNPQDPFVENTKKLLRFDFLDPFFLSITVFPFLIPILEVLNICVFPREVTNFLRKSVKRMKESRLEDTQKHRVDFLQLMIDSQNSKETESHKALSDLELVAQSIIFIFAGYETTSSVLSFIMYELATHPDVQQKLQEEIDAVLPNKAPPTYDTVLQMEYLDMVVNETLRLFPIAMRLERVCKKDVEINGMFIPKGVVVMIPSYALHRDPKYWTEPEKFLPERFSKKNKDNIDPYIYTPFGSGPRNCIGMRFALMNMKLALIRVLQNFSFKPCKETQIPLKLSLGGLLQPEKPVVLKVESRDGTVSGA
ENDPOINT: activity at 0.25 h, 10 µM (%)

{"columns": ["STRUCTURE_STRING", "UNIT_TAG", "activity at 0.25 h, 10 µM"],
 "data": [
  ["CC(C)Oc1ccc(COc2ccc3c(c2)CCCN(S(=O)(=O)CCC(=O)O)C3)cc1C#N", "%", 96.4],
  ["CC(C)Oc1ccc(COc2ccc3c(c2)CCCN(S(=O)(=O)CCO)C3)cc1C#N", "%", 84.7],
  ["CC(C)Oc1ccc(COc2ccc3c(c2)OCCN(S(=O)(=O)CCC(=O)O)C3)cc1C#N", "%", 68.8]
]}

* * *

target: UniProt P21453; assay: Agonist activity at S1P1 (unknown origin) expressed in human HEK293/Galpha15 cells assessed as Ca2+ activation at 1 uM measured for 2 hrs by FLIPR analysis relative to control; format: functional, cell-based; settings: filed as agonist
ENDPOINT: Activity (%)

{"columns": ["STRUCTURE_STRING", "Activity / %"],
 "data": [
  ["CC(C)Oc1ccc(COc2ccc3c(c2)CCN(CCC(=O)O)C3)cc1C#N", 82]
]}

a. CC(C)Oc1ccc(COc2ccc3c(c2)OCCN(S(=O)(=O)CCCO)C3)cc1C#N
b. CC(C)Oc1ccc(COc2ccc3c(c2)CCCN(S(=O)(=O)CCO)C3)cc1C#N
Input line: Problem: Given the entries a and b , determine which has the lower reported Activity. Give the label under which the chosen entry appears.
Output line: a
(a: 46%, b: 68%)

* * *

test: Microsomal stability in human liver microsomes assessed as parent compound remaining preincubated for 5 mins followed by NADPH addition measured after 60 mins by LC-MS/MS analysis; format: ADME, Microsome; details: time 65 min, read-out: Stability
ENDPOINT: remaining at 1 h (%)

Consider the reported remaining at 1 h for these compounds:
{"columns": ["COMPOUND", "remaining at 1 h (%)"],
 "data": [
  ["CC(C)Oc1ccc(COc2ccc3c(c2)CCN(S(=O)(=O)CCC(=O)O)C3C)cc1C#N (stereo unspecified)", 100],
  ["CC(C)Oc1ccc(COc2ccc3c(c2)CCCN(S(=O)(=O)CCCO)C3)cc1C#N", 16.2],
  ["CC(C)Oc1ccc(COc2ccc3c(c2)OCCN(S(=O)(=O)CCCO)C3)cc1C#N", 17.5]
]}

A. CC(C)Oc1ccc(COc2ccc3c(c2)OCCN(S(=O)(=O)CC(=O)O)C3)cc1C#N
B. CC(C)Oc1ccc(COc2ccc3c(c2)CCCN(S(=O)(=O)CCO)C3)cc1C#N
Input line: API: POST /compare with A and B ; response names the item with higher remaining at 1 h. Give the label under which the chosen entry appears.
Output line: A
